system: Renilla luciferase RNA; test: Barcoded aptazyme variant library screen: un-cleaved Renilla luciferase RNA by barcode read counts, HEK293-T cells; type: cell-based; details: un-cleaved Renilla luciferase RNA, HEK293-T cells cultured with 1 mM theophylline (ON) over without theophylline (OFF); barcode read counts, triplicate
Here, each record is paired with measured Fold change in RNA expression between the ON state and the OFF state data.
PROPERTY NAME: Fold change in RNA expression between the ON state and the OFF state

MOLECULE	READOUT VALUE
RA186 (nucleic acid, expressed or natural sequence) DNA: GCGCGTCCTGGATTCGCGCGAGAATACCAGCATCGTCTTGATGCCCTTGGAAGTCTCGGAAACGCGTACATCCAGCTGACGAGTCCCAAATAGGACGAAACGCGC	1.3 fold
RA152 (nucleic acid, expressed or natural sequence) DNA: GCGCGTGGAATACCAGCATCGTCTTGATGCCCTTGGAAGTCCCCTGGATTCGCGGAAACGCGTACATCCAGCTGACGAGTCCCAAATAGGACGAAACGCGC	1.4 fold
RA300 (nucleic acid, expressed or natural sequence) DNA: GCGCGTCCTGGCGAGAATACCAGCATCGTCTTGATGCCCTTGGAAGTCTCGATTCGCGGAAACGCGTACATCCAGCTGACGAGTCCCAAATAGGACGAAACGCGC	1.0 fold
RA226 (nucleic acid, expressed or natural sequence) DNA: GCGCGTCCTGGATTCGCGGAAACGCGTACATCCAGCTGAAGTGATACCAGCATCGTCTTGATGCCCTTGGCAGCACTCGAGTCCCAAATAGGACGAAACGCGC	1.1 fold
RA299 (nucleic acid, expressed or natural sequence) DNA: GCGCGTAGTGATACCAGCATCGTCTTGATGCCCTTGGCAGCACTCCTGGATTCGCGGAAACGCGTACATCCAGCTGACGAGTCCCAAATAGGACGAAACGCGC	1.0 fold
RA239 (nucleic acid, expressed or natural sequence) DNA: GCGCGTCCTGGATTCGCGGAAACGCGTACATCCAGCTGACCCGGAATACCAGCATCGTCTTGATGCCCTTGGAAGTCCGGGAGTCCCAAATAGGACGAAACGCGC	1.1 fold
RA080 (nucleic acid, expressed or natural sequence) DNA: GCGCGTCCTGGATTCGGAGAATACCAGCATCGTCTTGATGCCCTTGGAAGTCTCCGGAAACGCGTACATCCAGCTGACGAGTCCCAAATAGGACGAAACGCGC	1.7 fold
